- TEST: Toxicity liver stage against HepG2, at 10uM
- Assay type: cell-based
- Parameters: test concentration 10 uM, cell line HepG2-A16-CD81EGFP
- RUN_PARAMETERS: human, HepG2-A16-CD81EGFP cells; read-out: INHIBITION
PROPERTY: cytotoxicity at 10 µM (%)
Express your answer in %, writing the number without its unit.

Example entries and their recorded answers appear below.
| COMPOUND | cytotoxicity at 10 µM / % |
| --- | --- |
| COCCn1nc(C(=O)N(C)Cc2cccnc2)ccc1=O | -144 |
| CCCn1cc(-c2cc(C(=O)N(C)C)c3cccc(C)c3n2)cn1 | 5.11 |
| Cc1ncsc1CCN(C)C(=O)c1ccc(Cn2cnnn2)cc1 | -9.17 |

Please report the measured cytotoxicity at 10 µM for COCCn1ccc2c(C(=O)NCC3CCCO3)cccc21 (configuration not stated) 1.53

Specify measured cytotoxicity at 10 µM for O=C(NC1=NCCS1)C1CSCN1C(=O)C1CCCC1 (configuration not stated) . 6.8

Please look at this compound and report its cytotoxicity at 10 µM: O=C(N[C@]12CC1CN(C(=O)c1ccco1)C2)c1ccoc1 (some centres not stated) -1.48

Give recorded cytotoxicity at 10 µM. c1ccc(N2CCC3(CCCN(c4ncccn4)C3)C2)nc1 (configuration not stated) -133

Give the measured cytotoxicity at 10 µM for Cc1noc(C)c1-c1nc(N(C)C)ncc1-c1cnccn1 -22.8

Note cytotoxicity at 10 µM for the compound shown: c1ccc(SCCN2CCN(CCn3cncn3)CC2)cc1 -2.88

Return cytotoxicity at 10 µM (reported value) for this compound: CN(C)S(=O)(=O)NC1CC(=O)N(c2ccccc2Cl)C1 (configuration not stated) 3.57

Please report the measured cytotoxicity at 10 µM for Cn1nccc1-c1nc2c(cc1C(=O)O)CCN(CC1CC1)CC2 -119

Answer with the recorded cytotoxicity at 10 µM for the compound listed here: Cc1ocnc1C(=O)Nc1ccc(-c2nnc(N(C)C)o2)cc1 5.49

---

- TEST: Toxicity liver stage against HepG2, at 10uM
- Format: cell-based
- Design: test concentration 10 uM, cell line HepG2-A16-CD81EGFP
- RUN_PARAMETERS: human, HepG2-A16-CD81EGFP cells; read-out: INHIBITION
PROPERTY: cytotoxicity at 10 µM
Show the value, then the unit it is measured in.

| COMPOUND | cytotoxicity at 10 µM |
| --- | --- |
| Cn1c(SCC(O)COCc2ccc(Cl)cc2)nnc1C1CC1 (configuration not stated) | 14% |
| CC(C)Nc1nc(N2CCCC2)nc2c1CN(c1ncc(F)cn1)CC2 | 13.5% |
| CCn1ccc2ccnc(CC3CN(C(=O)Cn4ccnc4C)C3)c21 | -5.87% |

Using the record for Cc1ccccc1CS(=O)(=O)CC(=O)NCc1ccccc1F , state its measured cytotoxicity at 10 µM. -6%

Look up and report measured cytotoxicity at 10 µM for this entry: COc1ncccc1NC(=O)C1CC1 -19.2%

State, in one line, measured cytotoxicity at 10 µM of Cc1cnc(N2CCOCC3(CCN(c4ccccn4)C3)C2)nc1 (configuration not stated) 6.85%

Input CCSc1ccc(C(=O)N2CCCCC2C(=O)NC(C)(C)C)cn1 (configuration not stated) , output reported cytotoxicity at 10 µM. -7.69%

Specify measured cytotoxicity at 10 µM for CCC(=O)N(c1ccc(C(=O)OC)cc1C)C(C)C . 0.814%

Retrieve cytotoxicity at 10 µM measured for COc1ccc2c(c1)CC(NCc1cccc(NC(C)=O)c1)CC2 (configuration not stated) and print it. -39.2%

Please give the documented cytotoxicity at 10 µM of COc1cc2nc(C)sc2cc1NC(=O)C(C)NC(N)=O (configuration not stated) -9.93%
